system: Protein kinase C delta type (Homo sapiens, UniProt Q05655)
Sequence (Q05655 whole entry): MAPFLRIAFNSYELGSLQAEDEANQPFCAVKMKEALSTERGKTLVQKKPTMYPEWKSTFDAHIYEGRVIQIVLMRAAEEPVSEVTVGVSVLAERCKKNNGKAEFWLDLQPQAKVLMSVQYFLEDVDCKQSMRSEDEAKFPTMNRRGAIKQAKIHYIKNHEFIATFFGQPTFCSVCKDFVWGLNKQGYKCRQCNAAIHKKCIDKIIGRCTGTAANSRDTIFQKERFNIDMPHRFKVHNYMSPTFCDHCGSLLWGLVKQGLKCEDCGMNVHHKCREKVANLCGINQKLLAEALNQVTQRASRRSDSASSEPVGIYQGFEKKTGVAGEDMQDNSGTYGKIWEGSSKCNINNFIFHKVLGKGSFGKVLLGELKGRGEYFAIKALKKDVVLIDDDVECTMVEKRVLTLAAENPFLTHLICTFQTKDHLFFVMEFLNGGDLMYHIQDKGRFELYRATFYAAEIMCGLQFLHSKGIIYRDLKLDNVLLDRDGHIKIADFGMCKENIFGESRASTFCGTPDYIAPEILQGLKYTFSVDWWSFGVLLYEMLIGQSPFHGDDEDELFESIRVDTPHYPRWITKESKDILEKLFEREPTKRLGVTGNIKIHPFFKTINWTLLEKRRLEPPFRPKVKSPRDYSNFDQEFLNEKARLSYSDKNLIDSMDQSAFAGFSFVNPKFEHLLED
protocol_description: Activation of PKCdelta (unknown origin) expressed in human LNCAP cells harboring GFP-tagged RasGRP1 assessed as phosphorylation at ser299 residues after 30 mins by immunoblot method
Assay type: cell-based
measured_parameter: pEC50
Just the number, please; pEC50 means minus log10 of the concentration in mol/L.

**Query** Identify the measured pEC50 of Cn1cc(/C=C2\CC(CO)(COC(=O)C(C)(C)C)OC2=O)c2ccccc21 (stereo unspecified) for Protein kinase C delta type (Homo sapiens, UniProt Q05655).
**Result** 5.10

---

system: Ras guanyl-releasing protein 3 (Homo sapiens, UniProt Q8IV61)
Sequence (Q8IV61 whole entry): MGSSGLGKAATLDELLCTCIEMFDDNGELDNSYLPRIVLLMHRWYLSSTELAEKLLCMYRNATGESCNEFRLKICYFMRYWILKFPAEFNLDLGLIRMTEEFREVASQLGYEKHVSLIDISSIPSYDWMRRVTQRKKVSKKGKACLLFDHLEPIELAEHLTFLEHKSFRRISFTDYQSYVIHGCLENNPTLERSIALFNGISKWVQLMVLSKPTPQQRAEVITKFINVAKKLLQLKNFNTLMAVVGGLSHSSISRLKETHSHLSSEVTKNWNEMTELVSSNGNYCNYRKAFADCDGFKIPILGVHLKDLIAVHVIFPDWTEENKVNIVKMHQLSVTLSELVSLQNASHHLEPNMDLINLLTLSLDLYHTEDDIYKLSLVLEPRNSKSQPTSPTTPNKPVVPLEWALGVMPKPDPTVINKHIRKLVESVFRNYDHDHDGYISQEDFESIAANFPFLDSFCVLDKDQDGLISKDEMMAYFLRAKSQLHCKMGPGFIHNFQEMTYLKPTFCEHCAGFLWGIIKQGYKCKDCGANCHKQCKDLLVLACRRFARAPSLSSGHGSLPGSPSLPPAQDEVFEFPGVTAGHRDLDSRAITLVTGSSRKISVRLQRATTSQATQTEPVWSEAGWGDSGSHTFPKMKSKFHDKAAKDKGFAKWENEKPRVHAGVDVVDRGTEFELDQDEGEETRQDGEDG
protocol_description: Activation of RasGRP3 in human Ramos cells after 30 mins by immunoblot method
Type: cell-based
measured_parameter: EC50

**Query** Given the compound Cn1cc(/C=C2\CC(CO)(COC(=O)C(C)(C)C)OC2=O)c2ccccc21 (stereo unspecified) , what is its reported EC50?
**Result** 860 nM
